Source: ChEMBL document CHEMBL4513216

- Test system: Plasmodium berghei
- ASSAY_NAME: Screen against P. berghei liver stage (PbLuc), transformed with Luciferase, at 10uM
- Type: functional, HepG2
- TEST_SETTINGS: tested at 10 uM
Hit rate of the full screen: of about 69,000 compounds, about 8,600 (12%) showed an effect of 50% or more. This is one part of a sample in which strong results are shown more often than they occur.
Give INHIBITION for every item shown.
Answers are plain numbers, in %.

Consider the worked cases shown below.
Fc1ccc(N2CCCN(Cc3ccc(-c4cc[nH]n4)o3)CC2)cc1
23.7
COCCC(=O)N1CCCC1c1nc(O)cc(C(C)C)n1 (stereo unspecified)
23.2
CN1C[C@H]2CC[C@@H](CC1=O)N2C(=O)c1cc2ccccc2[nH]c1=O
-7.53
Cn1cnnc1C1CCCN(C(=O)c2ccccn2)C1 (stereo unspecified)
13.6
COc1ccccc1C1(C(=O)N2CCCC(c3cc(C)[nH]n3)C2)CC1 (stereo unspecified)
-14.6

Answer for every listed entry: what is its INHIBITION? The entries follow.
1. O=C1CNc2ncnc(Nc3cccc(Cn4cccn4)c3)c2N1
2. Cc1cc(N2CCN(Cc3ccc(-c4cc[nH]n4)o3)CC2)cc(C)n1
3. Cc1cnn(CC2CN(Cc3nccn3CC(F)(F)F)CCO2)c1 (stereo unspecified)
4. O=C(c1ccc(N2CCOCC2)nc1)N1CCCC(n2cccn2)C1 (stereo unspecified)
5. Cc1oc(-c2ccco2)nc1CN1CCc2cnc(C(C)C)nc2C1

[46.1, 52.4, 29.7, 31.3, 21.9]

Look up INHIBITION: Cc1ccc(NC2CCN(C(=O)CCn3nc(C)cc3C)CC2)nn1
15.4
